target-or-test-system: human Adenosine A2b receptor (Homo sapiens)
Sequence (P29275 whole entry): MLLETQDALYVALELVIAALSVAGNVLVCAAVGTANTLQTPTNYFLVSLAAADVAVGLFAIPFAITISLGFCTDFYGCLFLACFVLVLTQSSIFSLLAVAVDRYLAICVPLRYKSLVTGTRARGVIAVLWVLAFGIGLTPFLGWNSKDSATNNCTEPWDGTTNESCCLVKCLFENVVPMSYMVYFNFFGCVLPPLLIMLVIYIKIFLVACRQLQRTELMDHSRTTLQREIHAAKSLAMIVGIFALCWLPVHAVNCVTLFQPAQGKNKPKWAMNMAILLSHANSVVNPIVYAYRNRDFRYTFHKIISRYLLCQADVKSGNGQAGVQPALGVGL
Counter-ions that a name gives are not always drawn.
readout: Ki (nM)

The compound identified as Cc1cc(-c2c(-c3cccc(C#N)c3)nn3ccc(C(=O)NC45CCC(N)(CC4)C5)nc23)cc(Cl)n1 [Example 6.12] registered its Ki at 6

The compound identified as Cc1cc(-c2c(-c3cccc(C#N)c3)nn3ccc(N4CCN[C@@H](C(C)(C)O)C4)nc23)cc(Cl)n1 [Example 2.40] registered its Ki at 23

The compound identified as Cc1cc(-c2c(-c3cccc(C#N)c3)nn3ccc(N[C@H]4CCNC4)nc23)cc(Cl)n1 [Example 4.6] registered its Ki at 4

The compound identified as Cc1cc(-c2c(-c3cccc(C#N)c3)nn3ccc(N4CCOCC4)nc23)cc(Cl)n1 [Example 2.33] registered its Ki at 212

The compound identified as Cc1cc(-c2c(-c3cccc(C#N)c3)nn3ccc(NC(=O)C(C)(C)O)nc23)cc(C)n1 [Example 94.5] registered its Ki at 20

[a] Cc1cc(-c2c(-c3cccc(C#N)c3)nn3ccc(C(=O)N[C@@H]4COC[C@@H]4O)nc23)cc(C)n1 [Example 92.30]
[b] Cc1cc(-c2c(-c3cccc(C#N)c3)nn3ccc(NCC(C)(C)N)nc23)cc(Cl)n1 [Example 4.10, trifluoroacetate]
[c] CCn1nccc1-c1c(-c2cccc(C#N)c2)nn2ccc(N3CCNCC3)nc12 [Example 33.6]
[d] Cc1cc(-c2c(-c3cccc(C#N)c3)nn3ccc(C(=O)O)nc23)cc(Cl)n1 [Example 9]
Order field: Ki | Direction: descending (largest first) List labels; respect the requested ordering. d, c, a, b
(d: 426 nM, c: 61 nM, a: 36 nM, b: 12 nM)
